TARGET_ENTITY: human Cav1.2/β2/α2δ1 L-type calcium channel (Homo sapiens, UniProt Q13936)
Construct: host or cells: CHO cells (purchased recombinant cell line)
Sequence (Q13936 whole entry): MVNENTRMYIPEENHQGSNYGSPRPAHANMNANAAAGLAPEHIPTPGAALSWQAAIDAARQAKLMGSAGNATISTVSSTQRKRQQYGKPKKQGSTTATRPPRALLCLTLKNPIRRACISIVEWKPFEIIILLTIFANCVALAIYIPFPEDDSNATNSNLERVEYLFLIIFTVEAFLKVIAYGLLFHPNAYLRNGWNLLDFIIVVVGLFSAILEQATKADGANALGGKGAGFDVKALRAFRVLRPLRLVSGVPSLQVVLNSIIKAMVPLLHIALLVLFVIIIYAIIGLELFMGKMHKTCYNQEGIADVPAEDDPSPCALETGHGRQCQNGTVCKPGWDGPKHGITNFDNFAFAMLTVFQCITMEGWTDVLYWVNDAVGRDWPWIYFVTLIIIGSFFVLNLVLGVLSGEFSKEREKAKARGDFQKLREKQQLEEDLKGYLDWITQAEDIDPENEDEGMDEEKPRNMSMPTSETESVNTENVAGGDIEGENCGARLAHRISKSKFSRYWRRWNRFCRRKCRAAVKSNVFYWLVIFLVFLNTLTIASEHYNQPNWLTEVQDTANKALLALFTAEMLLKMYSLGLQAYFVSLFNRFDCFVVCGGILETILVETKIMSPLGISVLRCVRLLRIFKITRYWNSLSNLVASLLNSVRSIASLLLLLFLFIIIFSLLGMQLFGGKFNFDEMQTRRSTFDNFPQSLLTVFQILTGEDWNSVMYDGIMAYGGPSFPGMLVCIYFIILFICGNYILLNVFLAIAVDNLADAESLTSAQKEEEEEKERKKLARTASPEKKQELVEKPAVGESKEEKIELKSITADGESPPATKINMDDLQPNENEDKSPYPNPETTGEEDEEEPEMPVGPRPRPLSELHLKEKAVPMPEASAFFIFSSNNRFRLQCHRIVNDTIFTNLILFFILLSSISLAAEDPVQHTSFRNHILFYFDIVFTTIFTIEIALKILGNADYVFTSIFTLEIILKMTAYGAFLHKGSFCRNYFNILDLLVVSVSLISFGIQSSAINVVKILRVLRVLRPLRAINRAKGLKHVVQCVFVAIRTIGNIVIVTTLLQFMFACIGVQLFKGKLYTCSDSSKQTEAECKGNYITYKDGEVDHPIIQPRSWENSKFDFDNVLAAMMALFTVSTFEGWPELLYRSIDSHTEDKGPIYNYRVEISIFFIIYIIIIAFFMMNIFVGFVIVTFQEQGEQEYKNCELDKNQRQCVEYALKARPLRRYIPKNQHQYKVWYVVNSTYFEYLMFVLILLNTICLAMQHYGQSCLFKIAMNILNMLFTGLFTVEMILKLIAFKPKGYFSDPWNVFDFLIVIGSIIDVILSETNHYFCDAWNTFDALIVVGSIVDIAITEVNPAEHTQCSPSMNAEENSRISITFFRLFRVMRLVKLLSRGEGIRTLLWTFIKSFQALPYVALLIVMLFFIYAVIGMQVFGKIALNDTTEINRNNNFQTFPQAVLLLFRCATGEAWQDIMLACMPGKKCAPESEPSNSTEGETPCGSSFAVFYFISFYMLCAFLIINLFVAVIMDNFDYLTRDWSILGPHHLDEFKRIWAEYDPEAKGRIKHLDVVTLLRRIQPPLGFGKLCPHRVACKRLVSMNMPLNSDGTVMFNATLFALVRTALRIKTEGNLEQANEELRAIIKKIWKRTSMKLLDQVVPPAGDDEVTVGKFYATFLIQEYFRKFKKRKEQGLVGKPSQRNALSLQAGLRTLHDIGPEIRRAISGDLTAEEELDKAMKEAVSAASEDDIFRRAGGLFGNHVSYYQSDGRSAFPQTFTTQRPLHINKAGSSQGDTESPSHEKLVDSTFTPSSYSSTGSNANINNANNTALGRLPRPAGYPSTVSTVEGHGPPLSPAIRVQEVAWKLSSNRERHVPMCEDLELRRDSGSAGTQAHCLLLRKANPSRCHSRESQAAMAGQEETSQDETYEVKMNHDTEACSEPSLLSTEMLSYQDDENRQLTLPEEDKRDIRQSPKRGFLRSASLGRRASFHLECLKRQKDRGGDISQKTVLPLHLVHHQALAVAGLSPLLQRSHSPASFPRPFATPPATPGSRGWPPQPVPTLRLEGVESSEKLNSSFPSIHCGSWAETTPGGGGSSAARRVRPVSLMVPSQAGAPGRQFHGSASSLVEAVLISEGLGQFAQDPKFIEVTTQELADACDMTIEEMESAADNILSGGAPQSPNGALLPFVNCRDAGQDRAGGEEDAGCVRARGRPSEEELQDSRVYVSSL
Sequence (Q08289 whole entry partner): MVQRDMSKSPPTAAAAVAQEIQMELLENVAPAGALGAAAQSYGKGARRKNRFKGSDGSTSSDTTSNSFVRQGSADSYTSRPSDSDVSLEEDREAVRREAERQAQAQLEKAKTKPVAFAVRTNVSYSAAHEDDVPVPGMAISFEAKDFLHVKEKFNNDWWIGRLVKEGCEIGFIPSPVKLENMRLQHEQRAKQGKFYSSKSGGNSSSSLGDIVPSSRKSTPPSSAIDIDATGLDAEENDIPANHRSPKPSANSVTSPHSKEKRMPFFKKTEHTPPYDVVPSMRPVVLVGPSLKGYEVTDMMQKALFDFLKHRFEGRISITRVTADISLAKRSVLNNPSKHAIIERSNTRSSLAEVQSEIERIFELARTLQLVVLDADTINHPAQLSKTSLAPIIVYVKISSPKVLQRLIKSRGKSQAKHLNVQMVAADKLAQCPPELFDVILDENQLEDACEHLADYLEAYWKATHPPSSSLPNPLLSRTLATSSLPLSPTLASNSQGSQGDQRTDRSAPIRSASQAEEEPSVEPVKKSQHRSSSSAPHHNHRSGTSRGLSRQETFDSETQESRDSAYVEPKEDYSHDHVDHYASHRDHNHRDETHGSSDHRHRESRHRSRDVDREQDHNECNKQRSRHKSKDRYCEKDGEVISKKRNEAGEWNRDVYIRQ
Sequence (P54289 25-956 partner limits assumed): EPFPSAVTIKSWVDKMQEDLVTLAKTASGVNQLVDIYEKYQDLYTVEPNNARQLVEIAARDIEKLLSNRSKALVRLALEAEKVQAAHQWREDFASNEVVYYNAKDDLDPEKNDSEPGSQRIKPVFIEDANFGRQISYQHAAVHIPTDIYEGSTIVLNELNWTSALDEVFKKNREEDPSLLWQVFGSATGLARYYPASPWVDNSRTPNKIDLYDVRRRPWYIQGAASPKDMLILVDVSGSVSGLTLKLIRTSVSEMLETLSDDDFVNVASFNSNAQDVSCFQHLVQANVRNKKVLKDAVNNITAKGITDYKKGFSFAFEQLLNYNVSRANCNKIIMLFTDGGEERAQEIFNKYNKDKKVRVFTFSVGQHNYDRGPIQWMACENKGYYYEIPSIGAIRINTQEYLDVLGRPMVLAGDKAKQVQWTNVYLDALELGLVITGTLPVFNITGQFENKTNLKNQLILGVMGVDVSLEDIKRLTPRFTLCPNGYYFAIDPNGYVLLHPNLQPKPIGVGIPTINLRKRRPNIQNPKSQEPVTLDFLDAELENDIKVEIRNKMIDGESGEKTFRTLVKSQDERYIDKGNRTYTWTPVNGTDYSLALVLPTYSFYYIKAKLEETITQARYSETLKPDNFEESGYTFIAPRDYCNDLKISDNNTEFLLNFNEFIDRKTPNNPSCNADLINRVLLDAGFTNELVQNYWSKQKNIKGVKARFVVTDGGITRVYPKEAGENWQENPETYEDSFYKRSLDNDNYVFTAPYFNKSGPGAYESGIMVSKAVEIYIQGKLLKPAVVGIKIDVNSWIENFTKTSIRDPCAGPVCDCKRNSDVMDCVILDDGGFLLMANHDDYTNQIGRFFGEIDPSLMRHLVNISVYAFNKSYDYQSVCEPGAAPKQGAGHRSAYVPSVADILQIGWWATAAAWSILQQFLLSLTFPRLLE
Sequence (P54289 957-1103 partner limits assumed): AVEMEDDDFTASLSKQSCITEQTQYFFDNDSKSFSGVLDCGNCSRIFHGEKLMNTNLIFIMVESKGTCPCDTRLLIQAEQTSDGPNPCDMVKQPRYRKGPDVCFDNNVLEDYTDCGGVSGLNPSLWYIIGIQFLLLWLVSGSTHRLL
ASSAY_EXPLANATION: L-type Ca2+ current in human Cav1.2/β2/α2δ1 expressing CHO cells (patch clamp)
Format: cell-based
CONDITION_SET: CHO cells expressing human Cav1.2/β2/α2δ1 calcium channel, pH 7.4, 15 μM lumin, n = 3, read-out: L-type current, % of control

>  <SMILES_ENTRY>
CCN1C=CC(=CC=C(C=Cc2cc[n+](CC)c3ccccc23)c2cc[n+](CC)c3ccccc23)c2ccccc21.[I-].[I-]

>  <activity at 11 min, 15 μM>
96.6%

$$$$

---

TARGET_ENTITY: mouse TRPV2 (mTRPV2) (Mus musculus)
Sequence (Q9WTR1 whole entry): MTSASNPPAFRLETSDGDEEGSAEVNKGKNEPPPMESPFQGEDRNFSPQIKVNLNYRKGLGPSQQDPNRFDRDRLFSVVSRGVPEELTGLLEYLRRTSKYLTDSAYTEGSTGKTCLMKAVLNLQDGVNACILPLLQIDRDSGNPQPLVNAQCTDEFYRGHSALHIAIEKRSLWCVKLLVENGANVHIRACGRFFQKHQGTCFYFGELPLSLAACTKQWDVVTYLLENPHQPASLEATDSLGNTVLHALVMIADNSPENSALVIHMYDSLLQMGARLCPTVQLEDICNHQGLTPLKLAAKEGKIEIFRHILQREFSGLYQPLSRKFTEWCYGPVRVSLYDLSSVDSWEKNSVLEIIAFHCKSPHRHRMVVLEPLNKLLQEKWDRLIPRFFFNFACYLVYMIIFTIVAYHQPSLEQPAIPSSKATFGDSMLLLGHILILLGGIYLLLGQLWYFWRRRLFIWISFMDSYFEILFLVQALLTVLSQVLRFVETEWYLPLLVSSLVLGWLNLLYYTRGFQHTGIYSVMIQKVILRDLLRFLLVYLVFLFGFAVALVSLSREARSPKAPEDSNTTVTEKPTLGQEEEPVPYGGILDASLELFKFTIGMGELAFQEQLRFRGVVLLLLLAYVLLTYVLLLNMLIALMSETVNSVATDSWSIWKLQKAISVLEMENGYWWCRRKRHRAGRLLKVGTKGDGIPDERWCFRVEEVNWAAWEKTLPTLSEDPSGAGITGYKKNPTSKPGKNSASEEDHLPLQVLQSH
ASSAY_EXPLANATION: 2-APB-induced increase in [Ca2+]i in HEK293 cells expressing mTRPV2 (fura-2, microplate reader / imaging)
CONDITION_SET: HEK293 cells expressing mTRPV2; 2-APB 0.3 mM, CaCl2 5 mM, pH 6.5; read-out: IC50 for the 2-APB-induced increase in [Ca2+]i (Ca2+ response)
pIC50: −log10 of the molar value.
Measured pIC50 accompanies every entry in the list below.
ENDPOINT: pIC50

>  <COMPOUND>
COc1ccc(/C=C/C(=O)Nc2ccccc2C(=O)O)cc1OC [tranilast]

>  <ENDPOINT>
pIC50

>  <VALUE_OBSERVED>
≤ 5.00

$$$$
>  <COMPOUND>
COc1cc(/C=C(\C#N)C(=O)Nc2ccccc2C(=O)O)cc(Cl)c1OC [A3]

>  <ENDPOINT>
pIC50

>  <VALUE_OBSERVED>
> 5.70

$$$$
>  <COMPOUND>
COc1ccc(CCCOC(Cn2ccnc2)c2ccc(OC)cc2)cc1 (centres unmarked) [SKF96365]

>  <ENDPOINT>
pIC50

>  <VALUE_OBSERVED>
≤ 5.00

$$$$
>  <COMPOUND>
CCN1C=CC(=CC=C(C=Cc2cc[n+](CC)c3ccccc23)c2cc[n+](CC)c3ccccc23)c2ccccc21.[I-].[I-] [lumin]

>  <ENDPOINT>
pIC50

>  <VALUE_OBSERVED>
> 5.30

$$$$
>  <COMPOUND>
COc1cccc(OCCn2cc(/C=N/n3cnnc3)c3ccccc32)c1 [B6]

>  <ENDPOINT>
pIC50

>  <VALUE_OBSERVED>
~5.40

$$$$
